Entry source: patent US20190338026A1

target_of_assay: T1, human LAIR1 extracellular domain (ECD) protein with 6 HIS tag at the C-terminus (human, UniProt Q6GTX8 22-165)
T1 construct: Produced recombinantly in HEK293 cells; the whole entry is named here; also called LAIR1 ECD; LAIR1-ECD
T1 chain: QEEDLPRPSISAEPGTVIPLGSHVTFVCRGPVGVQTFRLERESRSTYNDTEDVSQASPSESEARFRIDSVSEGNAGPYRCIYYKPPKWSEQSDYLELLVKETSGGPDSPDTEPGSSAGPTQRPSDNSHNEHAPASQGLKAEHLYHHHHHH
protocol_notes: ELISA, LAIR1 ECD coated, mAb titrated, anti-rabbit HRP
Here, each record is paired with measured EC50 data.
// note: answer is a bare numeric in nM

Known EC50 results, listed for orientation:
LA-63 (antibody, V domains shown, Rabbit monoclonal IgG; also called mAb LA-63) VH: EQSVEESGGRLVAPGGSLTLTCTVSGFSLSSYAMSWVRQAPGKGLEWIGVMYNSGSAYYASWAKGRFTISRTSTTVDLKVTSLTTEDTATYFCGRGGSNSAWGDDLWGPGTLVTVSS VL: ELDMTQTPASVSEPVGGTVTIKCQASQSISIRYFSWYQQKPGQPPKLLIYGASTLASGVPSRFKGSGSGTDFTLTISDLECADAATYYCQDSNYNSNYFGAFGGGTEVVVK
234
LA-145 (antibody, V domains shown, Rabbit monoclonal IgG) VH: SSSVEESGGRLVTPGTPLTLTCTVSGFSLSSYVMGWVRQAPGKGLEWIGTISIRSNTYYASWAKGRFTISKTSTTVDLKITSPITEDTATYFCARGAGNVYYSDYYFSLWGPGTLVTISS VL: ELVMTQPPASVSAAVGGTVTINCQASQNIYSNLAWYQQRPGQPPKLLIYKASTLASGVPSRFKGSGSGTDYTLTITDLECADAATYYCQTYYNMMDDGAAFGGGTEVEIK
0.08
LA-151 (antibody, V domains shown, Rabbit monoclonal IgG) VH: SSSVEESGGRLVTPGTPLTLTCTVSGFSLGSYAMGWVRQGPGKGLEWIGAVYGTTGYIYFATWAKGRFTISKTSTTVDLKITSPTTEDTATYFCARGYLTDSIANGFGVWGPGTLVTVSS VL: ELDLTQTPASVSEPVGGTVTIKCQASQTITNRYLAWYQQKPGQPPKLLIYQSSKLASGVSSRFKGSGSGTDFTLTISDLECADAATYYCQCTDYGSTYLGTFGGGTEVEIK
0.08
LA-258-2 (antibody, V domains shown, Rabbit monoclonal IgG) VH: QSVKESGGDLVKPEGSLTLTCKASGFSFSNSYYMCWVRQAPGKGLEWIACIYTGSTSGTYYASWVNGRFTISKTPSTTVTLQMTSLTVADTATYFCSRKLTNFNGAYLDLWGPGTLVTISS VL: ELVMTQTPSSVEAAVGGTVTIKCQASQSIYSYLAWYQQKPGQPPKVLIYKASTLASGVPSRFKGSGSGTDFTLTISDLECADAATYYCQANNGGSDNNFGGGTEVEIK
0.37

Field: next binder
What EC50 value was documented for this binder, LA-82 (antibody, V domains shown, Rabbit monoclonal IgG; also called mAb LA-82) VH: EQSLEESGGDLVKPGASLTLACTASGFSFSDGYYMCWVRQAPGKGLEWIGCIHSSSGSIYYASWAKGRFTISKTSSTMVTLQMSSLTAADTATYFCARDSESYGYNPCELWGPGTLVTISS VL: ELVMTQTPASVSEAVGGTVTIKCQASQTISNYLAWYQQKPGQRPKLLIYAASSLASGVSSRFRGSRSGTEYTLTITDLECDDAATYYCQCTYYGTTYIGGAFGGGTEVEIK ? 0.1
